Numbers sourced from PubChem BioAssay AID2391.

For each of the compounds below, state its CPE inhibition.
Experiment: inhibition of RSV-induced cytopathic effect – HEp-2 cells, primary 10 µM value included (AID 2391)
Details: at 10 µM, hits give high values
Screen size: about 310,000 compounds; about 410 (0.13%) were called active. Another 2% or so got no clear call; they are omitted. The list is a sample of the results. Entries with a potency or affinity are not part of this list.
Unit % implied. Number only.

Task: Item under review: CCOC(=O)c1cnc(Cc2ccccc2)[nH]c1=O . Reported CPE inhibition?
Result: 1.25

Task: Item under review: NNC(=O)c1[nH]c(-c2ccccc2)cc1-c1ccccc1 . Reported CPE inhibition?
Result: 0.95

Task: Item under review: Cc1nc(-c2cccc(S(=O)(=O)N3CCOCC3)c2)cs1 . Reported CPE inhibition?
Result: 2.05

Task: Item under review: O=c1nc2ccccc2c2n1CC(CN1CCN(c3ccc(F)cc3)CC1)N2 (stereo not given) . Reported CPE inhibition?
Result: -0.72

Task: Item under review: COC(=O)c1cc(S(=O)(=O)NCCc2cccc(C)c2)cn1C . Reported CPE inhibition?
Result: 0.96

----------
Experiment: inhibition of RSV-induced cytopathic effect – HEp-2 cells, primary 10 µM value included (AID 2391)
Conditions: at 10 µM, hits give high values
About 410 (0.13%) of roughly 310,000 compounds were called active. Another 2% or so got no clear call; they are omitted. Only a sample is shown. Entries with a potency or affinity are not part of this list.
Our labelling divides records by CPE inhibition into ranges: bottom = under 2%, middle = from 2% up to 3%, top = 3% and over

Task: Note: place this compound into its band. Item: O=C(NC1CCCCC1)N1CCN(c2ncccn2)CC1
Result: middle

Task: Note: place this compound into its band. Item: CCOC(=O)c1c(CC(C)C)csc1NC(=O)COC(=O)c1cc(OC)c(OC)cc1[N+](=O)[O-]
Result: top

Task: Note: place this compound into its band. Item: CCN(CC)c1ccc(CN(C(=O)c2cccs2)C2CCS(=O)(=O)C2)cc1 (centres undefined)
Result: bottom

Task: Note: place this compound into its band. Item: c1ccc(Nc2nc(-c3ccncc3)nc3ccccc23)cc1
Result: top

Task: Note: place this compound into its band. Item: COc1ccc(-c2nn(-c3ccccc3)cc2C2CC(c3cccs3)=NN2C(=O)CCCC(=O)O)cc1 (centres undefined)
Result: top

Task: Note: place this compound into its band. Item: Cc1cccnc1NC(=O)c1ccc(OCc2c(C)noc2C)cc1
Result: bottom

Task: Note: place this compound into its band. Item: COc1ccc(C2CCCN2C(=O)Nc2ccccc2)cc1OC (centres undefined)
Result: middle

----------
Assay: inhibition of RSV-induced cytopathic effect – HEp-2 cells, primary 10 µM value included (AID 2391)
Conditions: at 10 µM, hits give high values
Out of some 310,000 compounds screened, about 410 (0.13%) were called active. Roughly 2% stayed inconclusive and do not appear here. The list is a sample of the results. Results with a measured potency or affinity are listed apart.
For each of the compounds below, state its CPE inhibition.

Task: Item under review: Cc1cccc(NC(=O)CNC(=O)CN2C(=O)NC3(CCCCC3C)C2=O)c1C (stereo not drawn) . Reported CPE inhibition?
Result: -0.96% (inactive)

Task: Item under review: c1ccc(-n2cc(CN3CCCC3)c(-c3ccc4c(c3)OCO4)n2)cc1 . Reported CPE inhibition?
Result: 5.52% (inactive)

Task: Item under review: CC(C)OCCCNC(=O)c1ccc2c(c1)NC(=O)c1ccccc1S2 . Reported CPE inhibition?
Result: 3.89% (inactive)

Task: Item under review: N#C/C(=C\c1ccc(OCc2ccc(C(=O)O)cc2)cc1)C(=O)NCc1ccccc1 . Reported CPE inhibition?
Result: 1.49% (inactive)

Task: Item under review: Cc1cc(OCc2cc(C(=O)N(C)CCOc3ccccc3)no2)cc(C)c1Cl . Reported CPE inhibition?
Result: 13.7% (inactive)

Task: Item under review: COC(=O)Cc1c(C)c2ccc(OC3CCCCC3=O)cc2oc1=O (stereo not drawn) . Reported CPE inhibition?
Result: 6.9% (inactive)

Task: Item under review: CC(=O)OC[C@H]1O[C@@H](Sc2cccc3cccnc23)[C@H](OC(C)=O)[C@@H](OC(C)=O)[C@@H]1OC(C)=O . Reported CPE inhibition?
Result: 1.39% (inactive)

Task: Item under review: CCC1Sc2ccc(S(=O)(=O)CCC(=O)Nc3c(Cl)cc(OC)cc3OC)cc2NC1=O (stereo not drawn) . Reported CPE inhibition?
Result: 12.2% (inactive)

Task: Item under review: O=C(Nc1cccc(Cl)c1)c1ccc(NCCCN2CCOCC2)c([N+](=O)[O-])c1 . Reported CPE inhibition?
Result: 5.44% (inactive)

Task: Item under review: Cc1ccc(N2CCN(C(=O)NC3CCCCC3)CC2C)cc1 (stereo not drawn) . Reported CPE inhibition?
Result: 3.66% (inactive)

Task: Item under review: O=C1CC(NCc2ccccc2F)C(=O)N1c1ccccc1 (stereo not drawn) . Reported CPE inhibition?
Result: 0.44% (inactive)

Task: Item under review: CCOc1ccc(-c2nnc3ccc(SCC(=O)N4CCCCC4)nn23)cc1 . Reported CPE inhibition?
Result: 1.74% (inactive)

Task: Item under review: CC(=O)N1c2ccccc2Nc2ccccc21 . Reported CPE inhibition?
Result: 0.92% (inactive)

----------
Experiment: inhibition of RSV-induced cytopathic effect – HEp-2 cells, primary 10 µM value included (AID 2391)
Conditions: at 10 µM, hits give high values
Among all 310,000 compounds or so, about 410 (0.13%) were called active. Inconclusive results (about 2%) are left out. Not all results are given here. Potency and affinity values are given separately.
Measure: CPE inhibition (%)
Unit % implied. Number only.

Task: Item under review: Cc1cc(SCC(=O)Nc2ncc(Cl)cc2Cl)nc2ccccc12 . Reported CPE inhibition?
Result: 5.54

Task: Item under review: COc1ccc(OC)c(CN2CCN(C(=O)c3ccc(F)cc3)CC2)c1 . Reported CPE inhibition?
Result: 2.45

Task: Item under review: O=C(COC(=O)c1ccc(F)cc1F)Nc1cccnc1Cl . Reported CPE inhibition?
Result: 1.68

----------
For each of the compounds below, state its CPE inhibition.
Experiment: inhibition of RSV-induced cytopathic effect – HEp-2 cells, primary 10 µM value included (AID 2391)
Details: at 10 µM, hits give high values
In all, about 310,000 compounds went through this assay and about 410 (0.13%) were called active. Roughly 2% stayed inconclusive and do not appear here. Only a sample is shown. Potency and affinity values are given separately.
Unit % implied. Number only.

Task: Item under review: Cc1cccc(NS(=O)(=O)c2cc(C(=O)OCC(=O)Nc3cc(C)on3)ccc2C)c1 . Reported CPE inhibition?
Result: -0.1

Task: Item under review: COc1ccc(OC)c(CN2CCC(CO)(CCOc3ccccc3)CC2)c1 . Reported CPE inhibition?
Result: -2.58

Task: Item under review: CC12CCC(=O)C=C1CCC1C2C(=O)CC2(C)C1CC[C@]2(O)C(=O)CO (stereo not given in full) . Reported CPE inhibition?
Result: 1.47

Task: Item under review: COc1ccc(C(C(=O)NC2CCCC2)N(C(=O)c2snc(C(N)=O)c2N)c2ccccc2OC)cc1OC (stereo not given) . Reported CPE inhibition?
Result: 17.8

Task: Item under review: COc1ccc(CNC(=O)N2CCN(c3ccc(F)cc3)CC2)cc1 . Reported CPE inhibition?
Result: 0.79

Task: Item under review: Cc1ccc(N(C(=O)c2snc(C(N)=O)c2N)C(C(=O)NC2CCCC2)c2ccncc2)cc1 (stereo not given) . Reported CPE inhibition?
Result: 0.36

Task: Item under review: COc1ccc(Cl)cc1C(=O)N(Cc1nc(-c2cccc(C)c2)no1)C(C)C . Reported CPE inhibition?
Result: 10.2

Task: Item under review: Cc1cc(NC(=O)c2c(Cl)cccc2Cl)no1 . Reported CPE inhibition?
Result: -0.16

Task: Item under review: O=C(COC(=O)c1ccc(OC(F)F)cc1)NC(=O)NC1CCCC1 . Reported CPE inhibition?
Result: 2.84

Task: Item under review: COCCCNC(=O)c1ccc(Cn2c(=O)c3ccccc3n(Cc3ccccc3C)c2=O)cc1 . Reported CPE inhibition?
Result: 1.4

Task: Item under review: CCOC(=O)Cn1nnnc1C(C(C)C)N(Cc1cc2c(C)cc(C)cc2[nH]c1=O)C1CCCC1 (stereo not given) . Reported CPE inhibition?
Result: 9.34

Task: Item under review: N#Cc1ccccc1Cn1c(=O)n(Cc2ccc(C(=O)NCc3ccco3)cc2)c(=O)c2sccc21 . Reported CPE inhibition?
Result: 2.1

Task: Item under review: COc1ccccc1C(=O)C1CCCN(C(=O)c2ccccn2)C1 (stereo not given) . Reported CPE inhibition?
Result: 2.51

Task: Item under review: CCn1cc(C(=O)O)c(=O)c2cc(F)c(N3CCN(C(=S)NC(=O)c4ccccc4)CC3)cc21 . Reported CPE inhibition?
Result: -1.03

Task: Item under review: CCOC(=O)c1c(C)[nH]c(C(=O)NCc2ccccn2)c1C . Reported CPE inhibition?
Result: -0.66

Task: Item under review: COC(=O)C1=C(C)N(c2ccccc2)/C(=C/c2ccco2)C1=O . Reported CPE inhibition?
Result: 0.77

Task: Item under review: CSc1cc(-c2ccc(Cl)cc2)c(C(=O)NN)s1 . Reported CPE inhibition?
Result: 0.87

Task: Item under review: COc1ccc(C(C(=O)NC2CCCC2)N(C(=O)c2snc(C(N)=O)c2N)C2CCCC2)cc1OC (stereo not given) . Reported CPE inhibition?
Result: 3.34

Task: Item under review: CC(C)(C)OC(=O)CN1C(=O)NC(Cc2c[nH]c3ccccc23)C1=O (stereo not given) . Reported CPE inhibition?
Result: -0.27

Task: Item under review: COC(=O)c1ccc(C(=O)OC)c(NC(=O)C2CC2)c1 . Reported CPE inhibition?
Result: 1.03

Task: Item under review: CCOC(=O)N/N=C(\C)c1cccs1 . Reported CPE inhibition?
Result: -0.75

Task: Item under review: Cc1cc(NC(=O)COc2ccc(N(C)S(=O)(=O)c3ccccc3)cc2)no1 . Reported CPE inhibition?
Result: 0.18

Task: Item under review: O=C(O)c1cc(NS(=O)(=O)c2cccs2)cc(NS(=O)(=O)c2cccs2)c1 . Reported CPE inhibition?
Result: 0.42

Task: Item under review: CNC(=O)CN1C(=O)NC(Cc2c[nH]c3ccccc23)C1=O (stereo not given) . Reported CPE inhibition?
Result: 2.1

Task: Item under review: CCCCCCC(=O)Nc1c2c(nc3ccccc13)N(C)CC2 . Reported CPE inhibition?
Result: 0.9

Task: Item under review: O=C(CCCn1c(=O)c2sccc2n(Cc2ccc(F)cc2)c1=O)NCc1ccco1 . Reported CPE inhibition?
Result: -0.44

Task: Item under review: Cc1nn(C)c(Cl)c1CN1CCCC(CO)(Cc2ccccc2)C1 (stereo not given) . Reported CPE inhibition?
Result: 62.6

Task: Item under review: COc1ccccc1Nc1nc(-c2cccnc2)cs1 . Reported CPE inhibition?
Result: 7.69

Task: Item under review: O=C(O)/C=C/C(=O)NCCC(c1ccccc1)c1ccccc1 . Reported CPE inhibition?
Result: -0.16

Task: Item under review: Cc1cc(C)n(CCCNC(=O)CN(C)S(=O)(=O)c2ccc(Cl)cc2)n1 . Reported CPE inhibition?
Result: -0.89
